meta.source: ChEMBL document CHEMBL5614420

assay: in vitro; conditions: human, liver microsomes
MEASUREMENT NAME: microsomal CLint at 1 h, 1 µM
Answer format: value, then unit.

Q: May I ask what microsomal CLint at 1 h, 1 µM has been recorded for "CC(C)c1ccc(C(=O)N(CC(=O)NCc2ccccc2)Cc2ccc(C(=O)NO)cc2)cc1" ?
Result: 112 µL/min/mg
